System: E18 rat cortical neuron-glia co-culture
Assay: myelination (MBP fiber length per Olig2+ nucleus), % of 1 µM DAPT response (DMSO = 0) (% of DAPT); higher = more myelination, active = 50 or more
Conditions: 1 µM; treatment time: 8 days (DIV5-DIV13)
Structures can show the parent of a compound that is named as a salt.
Recorded myelination by entry

| Compound | myelination |
| --- | --- |
| CC(C)Oc1ccc2c(=O)c(-c3ccccc3)coc2c1 | -8.04 (inactive) |
| COC(=O)C1=C(C)NC(C)=C(C(=O)OC)C1c1ccccc1[N+](=O)[O-] | -18.3 (inactive) |
| Cc1ccc(NC(=O)c2ccc(CN3CCN(C)CC3)cc2)cc1Nc1nccc(-c2cccnc2)n1 [Imatinib mesylate] | -5.16 (inactive) |
| Cc1c2oc3c(C)ccc(C(=O)N[C@@H]4C(=O)N[C@H](C(C)C)C(=O)N5CCC[C@H]5C(=O)N(C)CC(=O)N(C)[C@@H](C(C)C)C(=O)O[C@@H]4C)c3nc-2c(C(=O)N[C@@H]2C(=O)N[C@H](C(C)C)C(=O)N3CCC[C@H]3C(=O)N(C)CC(=O)N(C)[C@@H](C(C)C)C(=O)O[C@@H]2C)c(N)c1=O | < -33.5 (inactive) |
| CC1(C)S[C@@H]2[C@H](NC(=O)Cc3ccccc3)C(=O)N2[C@H]1C(=O)O | 12.3 (inactive) |
| NC(=O)N1c2ccccc2C=Cc2ccccc21 [Carbamazepine] | 2.28 (inactive) |
| Nc1nc(=O)c2nc(CNc3ccc(C(=O)N[C@@H](CCC(=O)O)C(=O)O)cc3)cnc2[nH]1 | -5.35 (inactive) |
| NC(N)=Nc1nc(CSCC/C(N)=N/S(N)(=O)=O)cs1 | -13.8 (inactive) |
